This collection of values is drawn from patent US12385839B2.

Some compounds, each annotated with its measured Kq.
Molecular target: human serum albumin (HSA) (Homo sapiens)
Assay: Fluorescence emission spectrum (quenching) of HSA with carbamate pesticides
Format: binding
Conditions: 296 K, pH 7.4
Measured property: Kq

CNC(=O)Oc1cccc(C)c1 [Metolcarb, metolcarb] = 3.261 ± 0.020 10^12 M^−1s^−1
CNC(=O)O/N=C(\CS(C)(=O)=O)C(C)(C)C [Thiofanox-sulfone, thiofanox sulfone] = 3.906 ± 0.043 10^12 M^−1s^−1
CNC(=O)O/N=C(\C)C(C)S(C)(=O)=O (centres unmarked) [Butoxycarboxim, butoxycarboxim] = 2.888 ± 0.064 10^12 M^−1s^−1
CNC(=O)Oc1cc(C)cc(C)c1 [XMC, 3,5-xylyl methylcarbamate] = 4.145 ± 0.187 10^12 M^−1s^−1
CCSCc1ccccc1OC(=O)NC [Ethiofencarb, ethiofencarb] = 2.562 ± 0.137 10^12 M^−1s^−1

* * *

Target: human serum albumin (HSA) (Homo sapiens)
Assay: Fluorescence emission spectrum (quenching) of HSA with carbamate pesticides
Assay type: binding
Settings: 296 K (Table 4); read-out: Ka
Protocol: the mixed solution to be tested was preheated at […] for 3 minutes, and the emission spectrum of HSA with carbamate pesticides was measured at 300-500 nm . […] The internal filtering effect of fluorescence signal was corrected according to the following formula: Fcor=Fobsexp[(Aex+Aem)/2] […] in the formula, F0 and F are fluorescence signals […] quencher, respectively. […] In this part, the binding sites and binding constants between carbamate pesticides and HSA were calculated. […]
Measured property: Kd (µM)

CNC(=O)O/N=C/C(C)(C)SC = 119

* * *

Measured α-helix contents, listed per entry.
Target: human serum albumin (HSA) (Homo sapiens, UniProt P02768)
Sequence (P02768 25-609): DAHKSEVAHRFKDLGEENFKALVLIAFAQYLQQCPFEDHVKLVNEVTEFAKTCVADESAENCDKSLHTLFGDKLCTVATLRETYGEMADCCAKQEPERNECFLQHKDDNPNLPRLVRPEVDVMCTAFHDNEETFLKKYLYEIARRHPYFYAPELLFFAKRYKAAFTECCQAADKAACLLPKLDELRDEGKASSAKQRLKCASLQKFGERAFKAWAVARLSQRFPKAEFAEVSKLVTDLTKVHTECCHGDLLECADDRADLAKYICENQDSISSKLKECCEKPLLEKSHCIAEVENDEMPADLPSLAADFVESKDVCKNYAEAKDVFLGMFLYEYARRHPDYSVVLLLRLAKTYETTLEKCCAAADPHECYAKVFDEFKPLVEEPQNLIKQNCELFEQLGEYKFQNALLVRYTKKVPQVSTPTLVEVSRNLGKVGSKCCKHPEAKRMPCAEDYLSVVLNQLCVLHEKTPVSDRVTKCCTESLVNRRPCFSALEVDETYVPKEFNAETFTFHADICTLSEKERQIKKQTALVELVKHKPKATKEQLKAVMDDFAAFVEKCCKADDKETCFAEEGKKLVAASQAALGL
Assay: Circular dichroism spectrum, secondary structure (α-helix content) of HSA
Details: 5:1 (Pesticide:HSA), HSA 2×10^−6 M
Measured property: α-helix contents (%)

CNC(=O)Oc1ccccc1C(C)C [Isoprocarb, isoprocarb] = 50.878
CNC(=O)O/N=C(\SC)C(=O)N(C)C [Oxamyl, oxamyl] = 50.883
CNC(=O)Oc1ccc(N(C)C)c(C)c1 [Aminocarb, aminocarb] = 49.862
CNC(=O)Oc1cccc(C)c1 [Metolcarb, metolcarb] = 53.549
CCSCc1ccccc1OC(=O)NC [Ethiofencarb, ethiofencarb] = 49.087
CNC(=O)Oc1cc(C)cc(C(C)C)c1 [Promecarb, promecarb] = 48.610
CNC(=O)Oc1ccccc1OC(C)C [Propoxur, propoxur] = 50.121
CNC(=O)ON=C(C)SC [Methomyl, methomyl] = 50.756
CNC(=O)Oc1cc(C)cc(C)c1 [XMC, 3,5-xylyl methylcarbamate] = 55.392
CNC(=O)O/N=C(\C[S+](C)[O-])C(C)(C)C (stereo not shown) [Thiofanox-sulfoxide] = 50.523

* * *

Biological target: human serum albumin (HSA) (Homo sapiens, UniProt P02768)
Test: Fluorescence emission spectrum (quenching) of HSA with carbamate pesticides
Type: binding
Conditions: 303 K (Table 4); read-out: Ka
Measured property: Kd (µM)

CNC(=O)O/N=C/C(C)(C)SC = 93.5

* * *

Target: human serum albumin (HSA) (Homo sapiens, UniProt P02768)
Experiment: Fluorescence emission spectrum (quenching) of HSA with carbamate pesticides
Format: binding
Settings: Van't Hoff, 296-310 K
Measured ΔH^0 of individual entries
Measured property: ΔH^0 (kJ/mol)

CNC(=O)O/N=C(\C[S+](C)[O-])C(C)(C)C (centres unmarked) [Thiofanox-sulfoxide] = 50.812
CNC(=O)Oc1cccc(C)c1 = 48.673
CNC(=O)Oc1cccc2c1OC(C)(C)C2 = 64.326
CNC(=O)ON=C(C)SC = 89.675
CCSCc1ccccc1OC(=O)NC = 55.921
CNC(=O)Oc1ccccc1OC(C)C = 47.825
CNC(=O)Oc1ccc(N(C)C)c(C)c1 = 43.878
CNC(=O)Oc1cc(C)cc(C(C)C)c1 = 125.885
CNC(=O)Oc1ccccc1C(C)C = 44.910
CNC(=O)O/N=C(\SC)C(=O)N(C)C = 32.515
CNC(=O)Oc1cc(C)cc(C)c1 [XMC, 3,5-xylyl methylcarbamate] = 73.779
CNC(=O)ON=C(CSC)C(C)(C)C = 31.025
CNC(=O)O/N=C(\C)C(C)S(C)(=O)=O (centres unmarked) = 81.824
CNC(=O)O/N=C(\CS(C)(=O)=O)C(C)(C)C = 98.120

* * *

Molecular target: human serum albumin (HSA) (Homo sapiens)
Assay: Fluorescence emission spectrum (quenching) of HSA with carbamate pesticides
Type: binding
Settings: 310 K, pH 7.4; read-out: Ka (binding constant)
pKd: −log10 of the molar value.
Measured property: pKd

CNC(=O)ON=C(C)SC [Methomyl, methomyl] = 3.55
CNC(=O)Oc1ccc(N(C)C)c(C)c1 [Aminocarb, aminocarb] = 3.10
CNC(=O)Oc1cc(C)cc(C)c1 [XMC, 3,5-xylyl methylcarbamate] = 3.86
CNC(=O)O/N=C(\SC)C(=O)N(C)C [Oxamyl, oxamyl] = 3.85
CNC(=O)O/N=C(\C)C(C)S(C)(=O)=O (centres unmarked) [Butoxycarboxim, butoxycarboxim] = 3.42

* * *

Biological target: human serum albumin (HSA) (Homo sapiens, UniProt P02768)
Assay: Fluorescence emission spectrum (quenching) of HSA with carbamate pesticides
Format: binding
Details: 310 K, titration of pesticide
Measured property: fluorescence of HSA quenched by pesticide

CNC(=O)O/N=C(\SC)C(=O)N(C)C [Oxamyl, oxamyl] = quenched
CCSCc1ccccc1OC(=O)NC [Ethiofencarb, ethiofencarb] = quenched
CNC(=O)Oc1ccccc1OC(C)C [Propoxur, propoxur] = quenched
CNC(=O)ON=C(C)SC [Methomyl, methomyl] = quenched
CNC(=O)ON=C(CSC)C(C)(C)C [Thiofanox, thiofanox] = quenched
CNC(=O)Oc1cc(C)cc(C(C)C)c1 [Promecarb, promecarb] = quenched

* * *

Biological target: human serum albumin (HSA) (Homo sapiens)
Assay: Fluorescence emission spectrum (quenching) of HSA with carbamate pesticides
Type: binding
Settings: Ka, 296 K (Table 4)
pKd: −log10 of the molar value.
Overview of recorded pKd for various molecules
Measured property: pKd

CCC(C)c1ccccc1OC(=O)NC (centres unmarked) = 2.28
CNC(=O)O/N=C/C(C)(C)S(C)(=O)=O = 2.41

* * *

Target: human serum albumin (HSA) (Homo sapiens)
Assay: Fluorescence emission spectrum (quenching) of HSA with carbamate pesticides
Format: binding
Details: 296 K, pH 7.4
Method: the mixed solution to be tested was preheated at […] for 3 minutes, and the emission spectrum of HSA with carbamate pesticides was measured at 300-500 nm . […] The internal filtering effect of fluorescence signal was corrected according to the following formula: Fcor=Fobsexp[(Aex+Aem)/2] […] in the formula, F0 and F are fluorescence signals […] quencher, respectively. […] In this part, the binding sites and binding constants between carbamate pesticides and HSA were calculated. […]
Measured property: Kq

CNC(=O)Oc1cc(C)cc(C(C)C)c1 [Promecarb, promecarb] = 2.409 ± 0.154 10^12 M^−1s^−1
CNC(=O)O/N=C(\SC)C(=O)N(C)C [Oxamyl, oxamyl] = 5.229 ± 0.185 10^12 M^−1s^−1
CNC(=O)Oc1ccc(N(C)C)c(C)c1 [Aminocarb, aminocarb] = 3.151 ± 0.089 10^12 M^−1s^−1
CNC(=O)Oc1ccccc1OC(C)C [Propoxur, propoxur] = 3.425 ± 0.132 10^12 M^−1s^−1
CNC(=O)Oc1ccccc1C(C)C [Isoprocarb, isoprocarb] = 2.175 ± 0.070 10^12 M^−1s^−1
CNC(=O)O/N=C(\C[S+](C)[O-])C(C)(C)C (stereo not drawn) [Thiofanox-sulfoxide] = 3.284 ± 0.040 10^12 M^−1s^−1
CNC(=O)ON=C(C)SC [Methomyl, methomyl] = 3.401 ± 0.068 10^12 M^−1s^−1
CNC(=O)ON=C(CSC)C(C)(C)C [Thiofanox, thiofanox] = 3.871 ± 0.035 10^12 M^−1s^−1
CNC(=O)Oc1cccc2c1OC(C)(C)C2 [Carbofuran, carbofuran] = 5.563 ± 0.123 10^12 M^−1s^−1

* * *

Molecular target: human serum albumin (HSA) (Homo sapiens, UniProt P02768)
Assay: Fluorescence emission spectrum (quenching) of HSA with carbamate pesticides
Type: binding
Conditions: Ka (binding constant), 296 K, pH 7.4
Criterion: Kd strictly under 2 mM. Met: Y. Not met: N.

CNC(=O)Oc1cccc(C)c1 = N
CNC(=O)Oc1cccc2c1OC(C)(C)C2 = Y
CNC(=O)Oc1ccccc1OC(C)C = Y
CNC(=O)ON=C(CSC)C(C)(C)C = Y
CNC(=O)Oc1cc(C)cc(C(C)C)c1 = N
CCSCc1ccccc1OC(=O)NC = N

* * *

Biological target: human serum albumin (HSA) (Homo sapiens, UniProt P02768)
Assay: Fluorescence emission spectrum (quenching) of HSA with carbamate pesticides
Assay type: binding
Conditions: 37°, modelling table
Description: the mixed solution to be tested was preheated at […] for 3 minutes, and the emission spectrum of HSA with carbamate pesticides was measured at 300-500 nm . […] The internal filtering effect of fluorescence signal was corrected according to the following formula: Fcor=Fobsexp[(Aex+Aem)/2] […] in the formula, F0 and F are fluorescence signals […] quencher, respectively. […] In this part, the binding sites and binding constants between carbamate pesticides and HSA were calculated. […]
Known Ksv (37°) of a selection of compounds
Measured property: Ksv (37°)

CCC(C)c1ccccc1OC(=O)NC (stereo not drawn) = 50302.85806
CNC(=O)O/N=C/C(C)(C)S(C)(=O)=O = 39842.68547
CNC(=O)O/N=C/C(C)(C)SC = 72295.50723
CCSCc1ccccc1OC(=O)NC = 41346.56830
CNC(=O)Oc1ccc(N(C)C)c(C)c1 = 39050.24214
CNC(=O)O/N=C(\C)C(C)S(C)(=O)=O (stereo not drawn) = 62644.83638
CNC(=O)Oc1ccccc1C(C)C = 30154.52708
CNC(=O)ON=C(CSC)C(C)(C)C = 58762.03726
CNC(=O)Oc1ccccc1OC(C)C = 50525.98687
CNC(=O)Oc1cc(C)cc(C(C)C)c1 = 58172.07681
CNC(=O)Oc1cc(C)cc(C)c1 [XMC, 3,5-xylyl methylcarbamate] = 48304.67460
CNC(=O)O/N=C(\SC)C(=O)N(C)C = 66054.55780
CNC(=O)Oc1cccc(C)c1 = 44415.60221
CNC(=O)ON=C(C)SC = 52883.69408
CNC(=O)Oc1cccc2c1OC(C)(C)C2 = 87696.31575
